- System: 171881-019-R-J1-PDC multicell spheroid viability;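 also: spheroids exposed to the agents for seven days before readout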
- TEST DESCRIPTION: Anticancer human tumor 171881-019-R-J1-PDC patient-derived invasive breast carcinoma cell line growth inhibition [IpAb]
- ASSAY SETUP: second compound 0.316 µM; first compound 10 µM; active compounds read low
Could you mark each record Satisfied if its viability, T/C falls strictly under 30%, and Not satisfied if it equals or exceeds it?

{"COMPOUND": "Cn1nccc1Nc1nccc(-c2ccn(C(CO)c3ccc(Cl)c(F)c3)c(=O)c2)n1 (stereo not given) + CCN1CCN(Cc2ccc(Nc3ncc(F)c(-c4cc(F)c5nc(C)n(C(C)C)c5c4)n3)nc2)CC1", "LABEL CLASS": "Satisfied"}
{"COMPOUND": "CCCS(=O)(=O)Nc1ccc(F)c(C(=O)c2c[nH]c3ncc(-c4ccc(Cl)cc4)cc23)c1F + CCN1CCN(Cc2ccc(Nc3ncc(F)c(-c4cc(F)c5nc(C)n(C(C)C)c5c4)n3)nc2)CC1", "LABEL CLASS": "Not satisfied"}
{"COMPOUND": "C=CC(=O)N1CCN(c2nc(=O)n(-c3c(C)ccnc3C(C)C)c3nc(-c4c(O)cccc4F)c(F)cc23)C(C)C1 (stereo not given) + CC(C)NCC(C(=O)N1CCN(c2ncnc3c2C(C)CC3O)CC1)c1ccc(Cl)cc1", "LABEL CLASS": "Satisfied"}
{"COMPOUND": "Cn1ncc(Cl)c1-c1cc(C(=O)NC(CN)Cc2cccc(F)c2)sc1Cl (stereo not given) + CC(C)NCC(C(=O)N1CCN(c2ncnc3c2C(C)CC3O)CC1)c1ccc(Cl)cc1", "LABEL CLASS": "Satisfied"}
{"COMPOUND": "CCCS(=O)(=O)Nc1ccc(F)c(C(=O)c2c[nH]c3ncc(-c4ccc(Cl)cc4)cc23)c1F + CC(C)NCC(C(=O)N1CCN(c2ncnc3c2C(C)CC3O)CC1)c1ccc(Cl)cc1", "LABEL CLASS": "Not satisfied"}
